test system: SF-539; experiment: Growth inhibition of human SF-539 cells at 10 uM incubated for 48 hrs by sulforhodamine B assay relative to control; type: functional; conditions: read-out: GI
MEASURED METRIC: inhibition of growth at 10 µM

Below: 6 molecules and their reported inhibition of growth at 10 µM.
> print(dat)
                                smiles.repr  measured.result
1  O=C(Cn1nnc2ccccc21)Nc1ccc(-c2nc3ccccc3s2)cc1            28.8%
2  CN1CCN(CC(=O)Nc2ccc(-c3nc4ccccc4s3)cc2)CC1             132%
3  O=C(CNc1nc2ccccc2s1)Nc1ccc(-c2nc3ccccc3s2)cc1            -7.1%
4  O=C(Cn1ccc2ccccc21)Nc1ccc(-c2nc3ccccc3s2)cc1           -2.36%
5  O=C(CNc1nc(-c2ccc(Cl)cc2)cs1)Nc1ccc(-c2nc3ccccc3s2)cc1            3.03%
6  O=C(CNCc1ccccc1)Nc1ccc(-c2nc3ccccc3s2)cc1            17.8%

Tell me the measured inhibition of growth at 10 µM of O=C(CN(c1ccccc1)c1ccccc1)Nc1ccc(-c2nc3ccccc3s2)cc1 , please.
4.21%

Quick check: inhibition of growth at 10 µM of O=C(CN1CCOCC1)Nc1ccc(-c2nc3ccccc3s2)cc1 ?
10.3%

Fill in: inhibition of growth at 10 µM of NS(=O)(=O)c1ccc(NCC(=O)Nc2ccc(-c3nc4ccccc4s3)cc2)cc1 is ___
8.62%

What does the record list as inhibition of growth at 10 µM for O=C(CN1C(=O)C(=O)c2ccccc21)Nc1ccc(-c2nc3ccccc3s2)cc1 ?
-0.12%

Please look up its inhibition of growth at 10 µM: O=C(CNc1ccc(Cl)cc1)Nc1ccc(-c2nc3ccccc3s2)cc1
21.9%

Reported inhibition of growth at 10 µM for O=C(CNc1nnc(-c2ccc(Cl)cc2)o1)Nc1ccc(-c2nc3ccccc3s2)cc1 : what is it?
2.97%

Given the entry Cc1cc(NCC(=O)Nc2ccc(-c3nc4ccccc4s3)cc2)no1 , report its measured inhibition of growth at 10 µM.
-5.46%

Please report the recorded inhibition of growth at 10 µM for O=C(CNc1ccccc1)Nc1ccc(-c2nc3ccccc3s2)cc1 .
12%

Item under review: O=C(CN1CCCCC1)Nc1ccc(-c2nc3ccccc3s2)cc1 . Reported inhibition of growth at 10 µM?
-0.41%

###

system: HL-60(TB); assay: Growth inhibition of human HL-60(TB) cells at 10 uM incubated for 48 hrs by sulforhodamine B assay relative to control; format: functional; details: read-out: GI
MEASURED METRIC: inhibition of growth at 10 µM
Enter the number, and then the unit.

Any idea what inhibition of growth at 10 µM was measured for CN1CCN(CC(=O)Nc2ccc(-c3nc4ccccc4s3)cc2)CC1 ?
3.63%

Which measured inhibition of growth at 10 µM value corresponds to O=C(CN1CCCCC1)Nc1ccc(-c2nc3ccccc3s2)cc1 ?
15.8%

Bench note: what inhibition of growth at 10 µM did NS(=O)(=O)c1ccc(NCC(=O)Nc2ccc(-c3nc4ccccc4s3)cc2)cc1 show?
66.6%

inhibition of growth at 10 µM for O=C(CNc1ccccc1)Nc1ccc(-c2nc3ccccc3s2)cc1 ?
11%

For the compound O=C(Cn1cncn1)Nc1ccc(-c2nc3ccccc3s2)cc1 , what inhibition of growth at 10 µM is on record?
-2.11%

Record request: inhibition of growth at 10 µM value, item O=C(CN1CCOCC1)Nc1ccc(-c2nc3ccccc3s2)cc1
-0.57%

###

test system: A549; assay: Growth inhibition of human A549/ATCC cells at 10 uM incubated for 48 hrs by sulforhodamine B assay relative to control; format: functional; conditions: read-out: GI
MEASURED METRIC: inhibition of growth at 10 µM (%)
Entry rule: numbers only, all in %.

Use these answered entries as a reference point.
> print(dat)
                                smiles.repr  measured.result
1  Cc1cc(NCC(=O)Nc2ccc(-c3nc4ccccc4s3)cc2)no1             7.66
2  O=C(CNC1CCCCC1)Nc1ccc(-c2nc3ccccc3s2)cc1               12
3  O=C(CN1C(=O)C(=O)c2ccccc21)Nc1ccc(-c2nc3ccccc3s2)cc1             2.72
4   O=C(CN1CCCCC1)Nc1ccc(-c2nc3ccccc3s2)cc1             5.89
5  Cc1ccc(NCC(=O)Nc2ccc(-c3nc4ccccc4s3)cc2)cc1             13.8

What is its inhibition of growth at 10 µM for A549? Entry: O=C(Cn1c2ccccc2c2ccccc21)Nc1ccc(-c2nc3ccccc3s2)cc1
0.89

Find inhibition of growth at 10 µM (A549) for the entry O=C(CNc1c(Cl)cccc1Cl)Nc1ccc(-c2nc3ccccc3s2)cc1
14.3

What measured inhibition of growth at 10 µM is associated with O=C(Cn1cnc2ccccc21)Nc1ccc(-c2nc3ccccc3s2)cc1 on A549?
39

// lookup inhibition of growth at 10 µM | system=A549 | key= Cc1cc(C)n(CC(=O)Nc2ccc(-c3nc4ccccc4s3)cc2)n1
5.29

Report inhibition of growth at 10 µM for O=C(CN(c1ccccc1)c1ccccc1)Nc1ccc(-c2nc3ccccc3s2)cc1 tested on A549.
-5.7

Lab request: please report inhibition of growth at 10 µM under test system A549 for O=C(CNCc1ccccc1)Nc1ccc(-c2nc3ccccc3s2)cc1
22.7

Which inhibition of growth at 10 µM is reported with A549 for this entry: COc1ccc(NCC(=O)Nc2ccc(-c3nc4ccccc4s3)cc2)cc1 ?
10.5

Give recorded inhibition of growth at 10 µM with A549 for the following molecule: O=C(CNc1nc(-c2ccc(Cl)cc2)cs1)Nc1ccc(-c2nc3ccccc3s2)cc1
0.99

###

system: A498; experiment: Growth inhibition of human A498 cells at 10 uM incubated for 48 hrs by sulforhodamine B assay relative to control; format: functional; details: read-out: GI
MEASURED METRIC: inhibition of growth at 10 µM (%)
Write the answer as a number in %, unit excluded.

> print(dat)
                                smiles.repr  unit.label  measured.result
1    O=C(Cn1ccnc1)Nc1ccc(-c2nc3ccccc3s2)cc1           %             42.5
2  CN1CCN(CC(=O)Nc2ccc(-c3nc4ccccc4s3)cc2)CC1           %             40.5
3  O=C(Cn1nnc2ccccc21)Nc1ccc(-c2nc3ccccc3s2)cc1           %             14.9

Now take the following compound into account.
Entry O=C(CNc1nc(-c2ccc(Cl)cc2)cs1)Nc1ccc(-c2nc3ccccc3s2)cc1 has what inhibition of growth at 10 µM?
-2.14

###

test system: UACC-257; assay: Growth inhibition of human UACC-257 cells at 10 uM incubated for 48 hrs by sulforhodamine B assay relative to control; type: functional; conditions: read-out: GI
# inhibition of growth at 10 µM annotations
Value expressed in %; do not type the unit.

Recorded results for 5 compounds are shown here.
> print(dat)
                                smiles.repr                measured.metric  measured.result
1   O=C(CN1CCOCC1)Nc1ccc(-c2nc3ccccc3s2)cc1  inhibition of growth at 10 µM            -1.38
2  O=C(Cn1ccc2ccccc21)Nc1ccc(-c2nc3ccccc3s2)cc1  inhibition of growth at 10 µM            -0.08
3  O=C(Cn1nnc2ccccc21)Nc1ccc(-c2nc3ccccc3s2)cc1  inhibition of growth at 10 µM              5.5
4  Cc1cc(NCC(=O)Nc2ccc(-c3nc4ccccc4s3)cc2)no1  inhibition of growth at 10 µM             0.29
5  Cc1cc(C)n(CC(=O)Nc2ccc(-c3nc4ccccc4s3)cc2)n1  inhibition of growth at 10 µM            -7.21

Would you kindly share the measured inhibition of growth at 10 µM for O=C(CNc1nnc(-c2ccc(Cl)cc2)o1)Nc1ccc(-c2nc3ccccc3s2)cc1 ?
-2.8

Quick one: inhibition of growth at 10 µM of O=C(CNc1ccc(Cl)cc1)Nc1ccc(-c2nc3ccccc3s2)cc1 ?
9.09

Can you share its inhibition of growth at 10 µM? I mean this compound: COc1ccc(NCC(=O)Nc2ccc(-c3nc4ccccc4s3)cc2)cc1
-3.88

###

Entries annotated with measured inhibition of growth at 10 µM
tested on: SK-MEL-2; experiment: Growth inhibition of human SK-MEL-2 cells at 10 uM incubated for 48 hrs by sulforhodamine B assay relative to control; format: functional; details: read-out: GI
All answers are understood in %, so give the number only.

For orientation, consider the following solved cases.
> print(dat)
                                smiles.repr                measured.metric  measured.result
1  O=C(CNc1ccc(Cl)cc1)Nc1ccc(-c2nc3ccccc3s2)cc1  inhibition of growth at 10 µM             21.5
2  O=C(CNc1c(Cl)cccc1Cl)Nc1ccc(-c2nc3ccccc3s2)cc1  inhibition of growth at 10 µM             15.2
3  Cc1ccc(NCC(=O)Nc2ccc(-c3nc4ccccc4s3)cc2)cc1  inhibition of growth at 10 µM            -6.66
4  O=C(CNCc1ccccc1)Nc1ccc(-c2nc3ccccc3s2)cc1  inhibition of growth at 10 µM            -7.25

Let us move to another entry and its inhibition of growth at 10 µM.
Any idea what its inhibition of growth at 10 µM is? The compound is O=C(CN1CCCCC1)Nc1ccc(-c2nc3ccccc3s2)cc1
-7.06

Data provenance: ChEMBL document CHEMBL4765227
